molecular target: PARP2 FL E286A (human (Homo sapiens), UniProt Q9UGN5 1-583, E286A); experiment: fluorescence polarization; mean and SD of 3 listed KDs (10.42, 7.271, 6.234); FP buffer, salt, pH and temperature not given (as in cited ref 17); crystallization: complex purified in 20 mM Hepes pH 7.5, 300 mM NaCl, 0.5 mM TCEP; crystals; conditions: protein: recombinant; tags: His-tag construct, TEV cleaved; label: fluorescein on internal T10; dumbbell of two hairpins (TTTT loops) with one nick
Sequence (Q9UGN5 whole entry E286A): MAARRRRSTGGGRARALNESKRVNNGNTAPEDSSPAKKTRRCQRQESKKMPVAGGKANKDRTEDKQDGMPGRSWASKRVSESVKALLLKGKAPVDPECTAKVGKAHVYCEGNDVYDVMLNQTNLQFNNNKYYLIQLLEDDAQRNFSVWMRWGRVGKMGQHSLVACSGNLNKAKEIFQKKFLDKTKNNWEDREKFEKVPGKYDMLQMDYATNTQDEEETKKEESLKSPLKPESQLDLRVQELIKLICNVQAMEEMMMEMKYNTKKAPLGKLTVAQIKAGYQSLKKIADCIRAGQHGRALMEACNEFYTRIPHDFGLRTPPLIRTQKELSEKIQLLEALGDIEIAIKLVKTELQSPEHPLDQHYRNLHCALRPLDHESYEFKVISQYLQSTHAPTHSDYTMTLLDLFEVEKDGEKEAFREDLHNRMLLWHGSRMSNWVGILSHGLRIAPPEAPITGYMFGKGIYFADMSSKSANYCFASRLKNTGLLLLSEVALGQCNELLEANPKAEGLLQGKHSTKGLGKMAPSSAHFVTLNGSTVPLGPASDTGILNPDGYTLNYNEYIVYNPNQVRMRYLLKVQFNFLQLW
MEASURED_PROPERTY: pKd
FYI, pKd means -log10 of a concentration in mol per litre.

Inquiry: Name the reported pKd value associated with the binder GGAAGTCTTTTGACTTCCTCGAAGCTTTTGCTTCGA (structured_DNA, 5'-phosphate) [DNA-8 nicked dumbbell]
Reply text: 8.10
